tested on: primary rat microglia; details: rat
Where a name gives a salt, the structure may show the parent alone.
value.type: Fibrin % cell toxicity (%)
Answers are plain numbers, in %.

// known answers, use as guide
INSERT INTO results (compound, value_type, obs_value) VALUES
  ('Nc1nc2[nH]cc(CCc3ccc(C(=O)N[C@@H](CCC(=O)O)C(=O)O)cc3)c2c(=O)[nH]1', 'Fibrin % cell toxicity', 0),
  ('NC[C@H]1CC[C@H](C(=O)O)CC1', 'Fibrin % cell toxicity', 1),
  ('O=C(O)/C=C/C(=O)O', 'Fibrin % cell toxicity', 1),
  ('Oc1c(Cl)cc(Cl)c2cccnc12', 'Fibrin % cell toxicity', 1),
  ('Clc1ccc(Nc2nnc(Cc3ccncc3)c3ccccc23)cc1', 'Fibrin % cell toxicity', 1);

Consider the following items and state reported Fibrin % cell toxicity for each.
1. CCCc1cc(=O)[nH]c(=S)[nH]1
2. Clc1ccccc1CN1CCc2sccc2C1
3. CC(C)Cc1ccc([C@H](C)C(=O)O)cc1
4. CNCCC=C1c2ccccc2CCc2ccccc21 [Nortriptyline hydrochloride, reference compound]
5. NNc1nncc2ccccc12 [Hydralazine]

1: 0; 2: 1; 3: 1; 4: 2; 5: 1

---

tested on: primary rat microglia; test: Cell toxicity (dead cells, size <150 μm2) in LPS assay; details: read-out: Cell Toxicity IC50 (uM) [LPS assay]; LPS assay; Table 6
Structures can show the parent of a compound that is named as a salt.
value.type: IC50

INSERT INTO measurements (compound, value_type, obs_value) VALUES
  ('C[C@]12CCC(=O)C=C1CC[C@@H]1[C@@H]2[C@@H](O)C[C@@]2(C)[C@H]1CC[C@]2(O)C(=O)CO [Hydrocortisone, reference compound]', 'IC50', '> 20 µM');

Your task in this section: give IC50 for each listed record.
1. CC(=O)OCC(=O)[C@@]12N=C(C)O[C@@H]1C[C@H]1[C@@H]3CCC4=CC(=O)C=C[C@]4(C)[C@H]3[C@@H](O)C[C@@]12C [Deflazacort, reference compound]
2. CCCC(=O)O[C@]1(C(=O)CO)CC[C@H]2[C@@H]3CCC4=CC(=O)CC[C@]4(C)[C@H]3[C@@H](O)C[C@@]21C [Hydrocortisone butyrate, reference compound]

1: > 20 µM; 2: > 20 µM

Quick request: IC50 for each listed item, please.
1. CC(NCCc1ccc(O)cc1)C(O)c1ccc(O)cc1 (stereo not drawn) [Ritodrine hydrochloride, reference compound]
2. CC(=O)OCC(=O)[C@@]1(OC(C)=O)[C@@H](C)C[C@H]2[C@@H]3C[C@H](F)C4=CC(=O)C=C[C@]4(C)[C@@]3(F)[C@@H](O)C[C@@]21C [Diflorasone diacetate, reference compound]
3. CCOC(=O)O[C@]1(C(=O)COC(=O)CC)CC[C@H]2[C@@H]3CCC4=CC(=O)C=C[C@]4(C)[C@H]3[C@@H](O)C[C@@]21C [Prednicarbate, reference compound]

1: > 20 µM; 2: > 20 µM; 3: > 20 µM

Please supply IC50 for each of the following items, keeping them in order.
1. CC(=O)O[C@]1(C(C)=O)CC[C@H]2[C@@H]3C[C@H](C)C4=CC(=O)CC[C@]4(C)[C@H]3CC[C@@]21C [Medroxyprogesterone acetate, reference compound]
2. CC(=O)O[C@@]12CO[C@@H]1C[C@H](O)[C@@]1(C)C(=O)[C@H](O)C3=C(C)[C@@H](OC(=O)[C@H](O)[C@@H](NC(=O)OC(C)(C)C)c4ccccc4)C[C@@](O)([C@@H](OC(=O)c4ccccc4)[C@H]21)C3(C)C [Docetaxel, reference compound]
3. C=C1C[C@H]2[C@@H]3C=C(C)C4=CC(=O)CC[C@]4(C)[C@H]3CC[C@]2(C)[C@@]1(OC(C)=O)C(C)=O [Melengestrol acetate, reference compound]
4. CC(=O)OCC(=O)[C@@]1(O)CC[C@H]2[C@@H]3CCC4=CC(=O)CC[C@]4(C)[C@@]3(F)[C@@H](O)C[C@@]21C [Fludrocortisone acetate, reference compound]
5. CC(=O)OCC(=O)[C@@]1(O)CC[C@H]2[C@@H]3CCC4=CC(=O)C=C[C@]4(C)[C@@]3(Cl)[C@@H](Cl)C[C@@]21C [Dichlorisone acetate, reference compound]

1. > 20 µM
2. > 20 µM
3. > 20 µM
4. > 20 µM
5. > 20 µM

// CCC(=O)OCC(=O)[C@@]1(OC(=O)CC)[C@H](C)C[C@H]2[C@H]3[C@H]([C@@H](O)C[C@@]21C)[C@@]1(C)C=CC(=O)C=C1C[C@H]3Cl [Alclometazone dipropionate, reference compound] : IC50 value = > 20 µM

Source: patent US20210330611A1
